target: PIK3CA (human) (UniProt P42336); assay: Enzyme Assay
Sequence (P42336 whole entry, looked up): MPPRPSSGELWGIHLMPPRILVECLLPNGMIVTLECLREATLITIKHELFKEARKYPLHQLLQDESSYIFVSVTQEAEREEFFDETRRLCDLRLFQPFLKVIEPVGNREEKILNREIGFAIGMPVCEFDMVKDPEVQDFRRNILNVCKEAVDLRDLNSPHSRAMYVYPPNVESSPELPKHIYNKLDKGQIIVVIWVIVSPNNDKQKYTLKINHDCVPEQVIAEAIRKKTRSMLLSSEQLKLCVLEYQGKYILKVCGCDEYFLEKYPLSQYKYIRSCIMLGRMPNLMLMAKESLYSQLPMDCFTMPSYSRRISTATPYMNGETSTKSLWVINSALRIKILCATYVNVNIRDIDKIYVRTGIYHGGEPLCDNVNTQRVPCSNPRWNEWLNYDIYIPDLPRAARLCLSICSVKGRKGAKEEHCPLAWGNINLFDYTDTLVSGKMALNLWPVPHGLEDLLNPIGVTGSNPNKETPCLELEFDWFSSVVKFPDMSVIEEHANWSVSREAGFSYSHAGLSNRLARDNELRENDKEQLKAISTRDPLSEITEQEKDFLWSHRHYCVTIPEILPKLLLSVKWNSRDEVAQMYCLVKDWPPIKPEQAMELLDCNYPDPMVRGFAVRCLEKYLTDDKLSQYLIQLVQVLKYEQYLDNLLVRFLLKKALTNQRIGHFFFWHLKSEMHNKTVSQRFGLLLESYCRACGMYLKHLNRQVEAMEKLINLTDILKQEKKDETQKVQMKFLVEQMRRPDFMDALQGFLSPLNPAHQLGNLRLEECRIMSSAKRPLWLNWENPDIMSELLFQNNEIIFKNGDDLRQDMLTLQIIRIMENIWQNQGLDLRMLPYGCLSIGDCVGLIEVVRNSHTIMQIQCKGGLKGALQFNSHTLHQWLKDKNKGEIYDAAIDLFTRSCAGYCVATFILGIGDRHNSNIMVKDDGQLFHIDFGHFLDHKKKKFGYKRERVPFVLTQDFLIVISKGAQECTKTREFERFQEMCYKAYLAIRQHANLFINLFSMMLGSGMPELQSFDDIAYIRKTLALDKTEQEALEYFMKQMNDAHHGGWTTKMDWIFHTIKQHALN
IC50 strictly under 2000 nM means Satisfied; at 2000 nM or over means Not satisfied.

Illustrative cases are given below, each with its answer.
Cc1ccccc1-n1c([C@@H]2CSCN2c2ncnc(N)c2C#N)nc2cccc(Cl)c2c1=O :: Not satisfied
Nc1nc(N2C[C@@H](F)C[C@H]2c2nc3cccc(C(F)(F)F)c3c(=O)n2-c2ccccc2)c2nc[nH]c2n1 :: Satisfied

Asked: Identify whether the molecule Cc1nc(N)nc(N2C[C@@H](O)C[C@H]2c2nc3cccc(C)c3c(=O)n2-c2ccccc2)c1C#N records IC50 below 2000 nM.
Given back: Satisfied

Asked: Same lookup for N#Cc1c(N)ncnc1N1C[C@@H](O)C[C@H]1c1nc2ccc(F)c(F)c2c(=O)n1-c1ccccc1 , please.
Given back: Not satisfied

Asked: Same lookup for N#Cc1c(N)ncnc1N1CCC[C@H]1c1nc2cccc(Cl)c2c(=O)n1C1CC1 , please.
Given back: Satisfied

Asked: Same lookup for COc1cccc2nc([C@@H]3CCCN3c3ncnc(N)c3C#N)n(-c3ccccc3)c(=O)c12 , please.
Given back: Not satisfied

----------
Answer each item with its documented pIC50.
target: PIK3CD (Human) (UniProt O00329); assay: Cell-Based Assay; conditions: rat-1
Sequence (O00329 whole entry, looked up): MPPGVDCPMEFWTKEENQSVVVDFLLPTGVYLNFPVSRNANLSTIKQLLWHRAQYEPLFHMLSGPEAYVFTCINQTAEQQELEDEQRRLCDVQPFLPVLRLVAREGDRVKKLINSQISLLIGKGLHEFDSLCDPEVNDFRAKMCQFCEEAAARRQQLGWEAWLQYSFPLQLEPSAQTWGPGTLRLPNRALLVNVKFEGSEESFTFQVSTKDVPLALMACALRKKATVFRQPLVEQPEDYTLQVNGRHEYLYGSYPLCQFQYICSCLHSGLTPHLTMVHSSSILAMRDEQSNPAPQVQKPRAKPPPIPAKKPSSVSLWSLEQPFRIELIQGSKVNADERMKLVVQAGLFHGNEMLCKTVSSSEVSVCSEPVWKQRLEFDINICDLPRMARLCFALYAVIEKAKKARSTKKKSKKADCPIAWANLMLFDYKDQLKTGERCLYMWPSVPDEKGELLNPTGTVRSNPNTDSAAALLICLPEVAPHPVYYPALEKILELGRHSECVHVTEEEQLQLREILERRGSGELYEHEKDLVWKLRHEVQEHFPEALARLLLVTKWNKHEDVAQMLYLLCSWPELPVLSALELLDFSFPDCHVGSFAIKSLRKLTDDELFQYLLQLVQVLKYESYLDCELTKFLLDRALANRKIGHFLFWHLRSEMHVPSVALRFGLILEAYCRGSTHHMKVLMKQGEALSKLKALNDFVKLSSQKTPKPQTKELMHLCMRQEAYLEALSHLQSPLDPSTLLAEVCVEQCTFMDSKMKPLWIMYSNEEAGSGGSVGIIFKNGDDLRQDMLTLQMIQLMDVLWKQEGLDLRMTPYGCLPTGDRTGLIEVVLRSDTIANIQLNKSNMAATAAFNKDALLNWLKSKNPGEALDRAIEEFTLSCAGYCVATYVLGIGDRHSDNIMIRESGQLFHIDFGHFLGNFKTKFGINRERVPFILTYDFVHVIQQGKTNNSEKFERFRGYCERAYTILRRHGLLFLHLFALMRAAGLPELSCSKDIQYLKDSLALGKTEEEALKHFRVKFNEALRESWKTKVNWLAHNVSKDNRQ
Give bare numbers, as −log10 of the molar value.

O=c1c2c(Cl)cccc2nc([C@@H]2C[C@H](O)CN2c2ncnc3[nH]cnc23)n1-c1ccccc1 :: 7.68
N#Cc1c(N)ncnc1N1C[C@@H](O)C[C@H]1c1nc2cccc(C(F)(F)F)c2c(=O)n1-c1ccccc1 :: 8.52
COc1ccc(-n2c([C@@H]3CCCN3c3nc(N)nc4[nH]cnc34)nc3cccc(Cl)c3c2=O)cn1 :: 6.19
Cc1ccccc1-n1c([C@@H]2CSCN2c2ncnc(N)c2C#N)nc2cccc(Cl)c2c1=O :: 7.42
O=c1c2c(Cl)cccc2nc([C@@H]2CSCN2c2ncnc3[nH]cnc23)n1-c1ccccc1C1CC1 :: 6.85
Nc1nc(N2CCC[C@H]2c2nc3cccc(Cl)c3c(=O)n2N2CCCCC2)c2nc[nH]c2n1 :: 6.54
N#Cc1c(N)ncnc1N1C[C@@H](O)C[C@H]1c1nc2cccc(C(F)(F)F)c2c(=O)n1-c1cccnc1 :: 7.07
N#Cc1c(N)ncnc1N1CCC[C@H]1c1nc2cccc(Cl)c2c(=O)n1-c1cccnc1 :: 7.92
Cc1nc(N)nc(N2C[C@@H](O)C[C@H]2c2nc3ccc(F)c(C4CC4)c3c(=O)n2-c2ccccc2)c1C#N :: 8.22
Cc1nc(N)nc(N2CCC[C@H]2c2nc3ccc(F)c(S(C)(=O)=O)c3c(=O)n2-c2ccccc2)c1C#N :: 6.99

For every record below, what is its pIC50?
1. CN(C)n1c([C@@H]2CCCN2c2ncnc3[nH]cnc23)nc2cccc(Cl)c2c1=O
2. Nc1nc(N2CCC[C@H]2c2nc3cccc(C(F)(F)F)c3c(=O)n2-c2ccccc2)c2ncsc2n1

Given back:
1: 6.96; 2: 6.96

For every record below, what is its pIC50?
1. O=c1c2c(Cl)cccc2nc([C@@H]2CCCN2c2ncnc3[nH]cnc23)n1N1CCOCC1
2. Nc1nc(N2C[C@@H](F)C[C@H]2c2nc3cccc(C(F)(F)F)c3c(=O)n2-c2cccc(F)c2)c2nc[nH]c2n1
3. Nc1nc(N2CCC[C@H]2c2nc3cccc(C(F)(F)F)c3c(=O)n2-c2cncc(F)c2)c2nc[nH]c2n1
4. N#Cc1c(N)ncnc1N1CCC[C@H]1c1nc2cccc(OC(F)F)c2c(=O)n1-c1ccccc1
5. Nc1nc(N2CCC[C@H]2c2nc3cccc(C(F)(F)F)c3c(=O)n2-c2ccccc2)c2nccn2n1
6. Cc1nc(N)nc(N2CCC[C@H]2c2nc3cc(F)cc(F)c3c(=O)n2-c2ccccc2)c1C#N
7. Nc1nc(N2CCC[C@H]2c2nc3cc(F)cc(F)c3c(=O)n2-c2ccccc2)c2nc[nH]c2n1
8. O=c1c2c(Cl)cccc2nc([C@@H]2CCON2c2ncnc3scnc23)n1-c1ccccc1

Given back:
7.10
7.30
6.79
6.78
5.09
6.83
6.50
7.24

For every record below, what is its pIC50?
1. N#Cc1c(N)nc(N)nc1N1CCC[C@H]1c1nc2cccc(C(F)(F)F)c2c(=O)n1-c1ccccc1
2. N#Cc1c(N)ncnc1N1CSC[C@H]1c1nc2cccc(Cl)c2c(=O)n1-c1ccccc1
3. Cc1nc(N)nc(N2CCC[C@H]2c2nc3cccc(OC(F)F)c3c(=O)n2-c2ccccc2)c1C#N
4. Cc1nc(N)nc(N2C[C@@H](O)C[C@H]2c2nc3cccc(Cl)c3c(=O)n2C2CC2)c1C#N
5. Cc1ccc(-n2c([C@@H]3CSCN3c3ncnc(N)c3C#N)nc3cccc(Cl)c3c2=O)s1
6. O=c1c2c(Cl)cccc2nc([C@@H]2CCON2c2ncnc3[nH]cnc23)n1-c1ccccc1
7. Cc1nc(N)nc(N2C[C@@H](O)C[C@H]2c2nc3cccc(C(F)(F)F)c3c(=O)n2-c2cc(F)cc(F)c2)c1C#N
8. Cc1nc(N)nc(N2CCC[C@H]2c2nc3cccc(C(F)(F)F)c3c(=O)n2-c2ccccc2)c1C#N

Given back:
1. 8.22
2. 7.85
3. 7.11
4. 7.07
5. 6.58
6. 5.74
7. 7.38
8. 7.43

For every record below, what is its pIC50?
1. Cc1nc(N)nc(N2CCC[C@H]2c2nc3cccc(Cl)c3c(=O)n2C2CC2)c1C#N
2. N#Cc1c(N)ncnc1N1CCC[C@H]1c1nc2cccc(Cl)c2c(=O)n1C1CC1
3. O=c1c2c(Cl)cccc2nc([C@@H]2CCCN2c2ncnc3[nH]cnc23)n1C1CCOCC1
4. Cc1nc(N)nc(N2C[C@@H](O)C[C@H]2c2nc3cccc(Cl)c3c(=O)n2-c2cccnc2)c1C#N

Given back:
7.21
7.37
6.75
8.05
